System: CP335
Assay: qHTS profiling for inhibitors of Plasmodium falciparum proliferation (AID 504749); also: nearly all actives have a fitted effect of over 60% in size
Details: P. falciparum in erythrocytes, SYBR Green DNA, 72 h; series mostly up to 28.7 µM
Records with an inconclusive call do not appear. Active and inactive are the calls of the source. Calls follow the shape of the dose curve; as a rule, active = well fitted inhibition curve with a large enough effect; inconclusive = small, poorly fitted or top-dose-only effect; inactive = flat fitted curve, though single readings scatter.
Form entry, call: pick from active, inactive

Solved entries:
CCN1CCC[C@H]1CNC(=O)c1c(OC)ccc(Br)c1OC inactive
C[C@@H]1C(=O)NC2=Nc3cccc(Cl)c3CN21 inactive
CC[N+](CC)(CCNC(=O)C(=O)NCC[N+](CC)(CC)Cc1ccccc1Cl)Cc1ccccc1Cl active
C#C[C@]1(OC(C)=O)CC[C@H]2[C@@H]3CCC4=C[C@@H](OC(C)=O)CC[C@@H]4[C@H]3CC[C@@]21C inactive
CC(C)(CO)[C@@H](O)C(=O)NCCCO inactive

-- ask // return assay outcome for `CCOc1ccc2nc3cc(N)ccc3c(N)c2c1`
-- reply active

-- ask // return assay outcome for `COc1cc(C(=S)N2CCOCC2)cc(OC)c1OC`
-- reply inactive

-- ask // return assay outcome for `CCCn1c(=O)[nH]c(=O)c2[nH]cnc21`
-- reply inactive

-- ask // return assay outcome for `O=S1(=O)c2cccc3cccc(c23)N1CCCN1CCN(c2ccc(F)cc2)CC1`
-- reply inactive

-- ask // return assay outcome for `CCCCCCCCCCCCCCNCCO`
-- reply inactive

-- ask // return assay outcome for `COc1c(C)c2c(c(O)c1C/C=C(\C)CCC(=O)O)C(=O)OC2`
-- reply active

-- ask // return assay outcome for `O=C(O)CNC(=O)c1ccccc1`
-- reply inactive
